Subject of test: T1, human C5 R885C-mmh (human, UniProt P01031 19-1676)
T1 construct: also called human C5 variant R885C
Experiment summary: SPR, mAb captured via anti-hFc, 25C
Measurement label: koff (s⁻¹)
Reply numerically in s⁻¹, unit not repeated.

What value of measured koff is listed for H4H12164P (antibody, human IgG4, V domains shown, Human IgG4 Fc with S108P hinge mutation (H4H)) VH: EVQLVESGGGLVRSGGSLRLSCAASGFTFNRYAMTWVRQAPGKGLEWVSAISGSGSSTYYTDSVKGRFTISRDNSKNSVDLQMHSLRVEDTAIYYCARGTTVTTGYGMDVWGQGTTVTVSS VL: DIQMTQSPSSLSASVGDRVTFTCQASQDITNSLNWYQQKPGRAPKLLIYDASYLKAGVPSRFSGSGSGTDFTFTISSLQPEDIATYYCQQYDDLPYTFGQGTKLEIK ?
0.000182
